Molecular target: Aurora kinase A (Homo sapiens) (UniProt O14965)
Sequence (O14965 whole entry): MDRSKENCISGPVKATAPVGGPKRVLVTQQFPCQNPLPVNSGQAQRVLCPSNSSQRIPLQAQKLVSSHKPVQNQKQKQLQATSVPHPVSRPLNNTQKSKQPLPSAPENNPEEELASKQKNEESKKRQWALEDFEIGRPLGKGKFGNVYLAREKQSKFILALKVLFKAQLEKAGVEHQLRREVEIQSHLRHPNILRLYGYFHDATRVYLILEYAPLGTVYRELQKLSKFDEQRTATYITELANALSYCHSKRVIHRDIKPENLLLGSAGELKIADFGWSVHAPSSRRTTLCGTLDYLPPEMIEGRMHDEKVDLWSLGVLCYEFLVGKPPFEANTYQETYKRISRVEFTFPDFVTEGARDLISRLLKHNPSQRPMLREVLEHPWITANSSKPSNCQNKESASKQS
Conditions: Compound concentration 20.0 uM
Description: Thermal Shift Assay. Domain: start/stop: E122-S403
Okay, here is how we bin by ΔTm: low range: < -2 °C; mid range: ≥ -2 °C and < -0.6 °C; high range: ≥ -0.6 °C

As a guide, the following entries are already answered.
C[C@H](NC(=O)[C@H](Cc1ccccc1)NC(=O)OCc1ccccc1)C(=O)CF; mid range
O=C(c1cc(Cc2n[nH]c(=O)c3ccccc23)ccc1F)N1CCN(C(=O)C2CC2)CC1; low range
COC1CCN(C(=O)c2cc(Cc3n[nH]c(=O)c4ccccc34)ccc2F)CC1; low range
CC(=O)C(=Cc1cc(O)c(O)c([N+](=O)[O-])c1)C(C)=O; high range
C[C@H]1CCCN1Cc1nc2cc(NC(=O)c3ccc4c(cnn4C)c3)ccc2[nH]1; high range

Shifting focus to the molecule that follows.
[ask] Assign a bin to `COCc1nc2cnc3cc(-c4c(C)noc4C)c(OC[C@H]4CCNC4)cc3c2n1[C@H](C)c1ccccc1`
[reply] mid range

###

Molecular target: Transcription intermediary factor 1-alpha (Homo sapiens) (UniProt O15164)
Sequence (whole entry): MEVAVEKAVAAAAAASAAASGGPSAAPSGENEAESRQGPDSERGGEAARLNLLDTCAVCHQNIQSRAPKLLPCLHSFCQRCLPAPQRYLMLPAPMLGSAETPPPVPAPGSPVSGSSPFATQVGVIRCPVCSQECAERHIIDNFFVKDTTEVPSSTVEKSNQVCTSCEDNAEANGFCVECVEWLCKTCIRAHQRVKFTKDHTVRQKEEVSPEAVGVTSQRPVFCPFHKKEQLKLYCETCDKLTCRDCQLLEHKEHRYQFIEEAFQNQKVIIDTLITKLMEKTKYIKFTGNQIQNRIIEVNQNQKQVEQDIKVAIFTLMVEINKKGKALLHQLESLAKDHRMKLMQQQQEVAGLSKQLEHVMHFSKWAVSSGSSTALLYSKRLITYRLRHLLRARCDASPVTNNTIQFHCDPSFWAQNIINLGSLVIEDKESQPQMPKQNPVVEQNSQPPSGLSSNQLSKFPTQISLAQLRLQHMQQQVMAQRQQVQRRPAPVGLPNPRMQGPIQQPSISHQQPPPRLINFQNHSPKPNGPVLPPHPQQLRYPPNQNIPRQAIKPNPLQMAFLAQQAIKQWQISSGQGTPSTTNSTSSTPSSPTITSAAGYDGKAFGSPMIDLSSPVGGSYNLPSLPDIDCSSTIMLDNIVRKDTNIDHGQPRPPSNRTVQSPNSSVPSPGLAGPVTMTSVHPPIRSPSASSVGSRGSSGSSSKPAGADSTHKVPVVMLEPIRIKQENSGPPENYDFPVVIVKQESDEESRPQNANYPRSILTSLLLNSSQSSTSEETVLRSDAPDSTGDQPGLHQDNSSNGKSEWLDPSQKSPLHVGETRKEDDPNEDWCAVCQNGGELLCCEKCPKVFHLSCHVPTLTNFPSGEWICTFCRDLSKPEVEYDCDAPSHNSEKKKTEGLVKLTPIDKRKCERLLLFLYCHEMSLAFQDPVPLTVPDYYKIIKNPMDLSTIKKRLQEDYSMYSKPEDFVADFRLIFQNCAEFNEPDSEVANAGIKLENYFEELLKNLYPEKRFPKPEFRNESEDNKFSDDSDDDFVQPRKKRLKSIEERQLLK
Details: Compound concentration 20.0 uM
For each record, write down the corresponding ΔTm.
Give bare numbers, in °C.

CNCCC(Oc1ccccc1OC)c1ccccc1 (centres undefined); 0.03
C=CCn1c(N[C@@H]2C[C@H](c3ccc(OCc4ccccc4)cc3)CN(C)C2)nc2cc[nH]c2c1=O; 0.04

Give ΔTm for all compounds that follow.
1. COc1cc2c(NCC3CCN(C)CC3)cc(-c3ccc(C)o3)nc2cc1OCCCN1CCCC1
2. C[C@H](Nc1cc(Cl)nc2c1cnn2[C@@H]1O[C@H](COP(=O)(O)CP(=O)(O)O)[C@@H](O)[C@H]1O)c1ccccc1F
3. CN(C)Cc1ccc(S(=O)(=O)n2ccc(/C=C/C(=O)NO)c2)cc1
4. C[C@H]1CO[C@@H]2Cn3cc(C(=O)NCc4ccc(F)cc4F)c(=O)c(O)c3C(=O)N12

[reply]
[-1.43, -0.82, -1.27, 0.47]

###

Target: Tyrosine-protein kinase ABL1 (Homo sapiens)
Details: Compound concentration 20.0 uM
Description: Thermal Shift Assay. Domain: start/stop: S229-K512
For each record, write down the corresponding ΔTm.
Give bare numbers, in °C.

CNCCN(C)Cc1cn[nH]c1-c1ccc(OC2CC(OCCC3CCOCC3)C2)cc1 (centres undefined); 0.66
CC(C)c1cc(C(=O)N2CC[C@@H](NC(=O)C3CC3)C2)[nH]n1; 0.79

Give ΔTm for all compounds that follow.
1. Cn1ncc(-c2nn(C)c3ncnc(N4CCC4)c23)c1-c1ccc(C(F)(F)F)cc1
2. C[C@]12CCCN1CC1=NNC(=O)c3cc(F)cc4[nH]c2c1c34

[reply]
1: 0.03; 2: 0.67

###

Molecular target: Bromodomain-containing protein 4 (Homo sapiens) (UniProt O60885)
Conditions: Compound concentration 20.0 uM
Recorded Endpoint: ΔTm (°C)
Answers are plain numbers, in °C.

Use these answered entries as a reference point.
Cc1cc(-c2ccccc2)cc(C(=O)NNS(=O)(=O)c2ccccc2)c1F; -6.22
CC(=Cc1cc(C)ccc1C=C(C)C(=O)NC(=N)N)C(=O)N=C(N)N; -2.96
COCc1nc(C(F)(F)F)[nH]c1-c1cc(C(=O)N2CC(c3ccc(C#N)cc3)C2)c(C)cc1C; -3.21
COCCOc1cc(CC2CCN(CCc3ccc4c(c3)C(=O)CCO4)CC2)ccc1Br; -2.23
OC1CN=C2c3ccn([C@@H]4O[C@H]([C@H](O)c5ccc(Cl)cc5)[C@@H](O)[C@H]4O)c3N=CN21 (some centres undefined); -1.38

Give ΔTm for all compounds that follow.
1. CC(=O)N1CCC(c2ccc(C(=O)NC(=N)N)cc2C(F)(F)F)CC1
2. O=C(NCc1ncccc1F)c1coc(CCNCCc2nc3ccccc3[nH]2)n1
3. C[C@@H](COCCC(=O)N1CCN(c2ncc(C(F)(F)F)cn2)CC1)Nc1cn[nH]c(=O)c1C(F)(F)F
4. CS(=O)(=O)c1ccc(Oc2cc(F)cc(C#N)c2)c2c1[C@H](O)[C@H](F)[C@@H]2F

[reply]
0.39
-3.66
-3.06
2.78

###

Molecular target: Glycogen synthase kinase-3 beta (Homo sapiens)
Conditions: Compound concentration 20.0 uM
Description: Thermal Shift Assay. Domain: start/stop: M26-R383
Recorded Endpoint: ΔTm (°C)
One number for each entry, in °C.

Use these answered entries as a reference point.
COc1cc(Nc2ncc(F)c(Nc3ccc4c(n3)N(COP(=O)(O)O)C(=O)C(C)(C)O4)n2)cc(OC)c1OC; -0.66
O=C(CN1CCN(c2ccc(F)cn2)CC1)Nc1nc2c(s1)CCCC2; 0.02
CNCc1ccc(-c2[nH]c3cc(F)cc4c3c2CCNC4=O)cc1; 5.05
Cn1ncnc1[C@H]1C2=c3c(cc(F)cc3=N[C@@H]1c1ccc(F)cc1)C(=O)NN2; 0.19
O=c1[nH][nH]c(=O)c2cc(OCC3CCCCC3)ccc12; 2.16

Give ΔTm for all molecules that follow.
1. Cc1cc(Cl)cc(-c2c3sc(CN4C(=O)C5C(C4=O)C5(C)C)cc3nn2C)c1OC1CCNCC1 (centres undefined)
2. O=c1[nH]c(N2CCC3(CC2)CN(CCO)c2cc(F)cc(F)c23)nc2c1CCCC2
3. CN(C)CCCCC(=O)Nc1ccc(NC(=S)NC(=O)c2ccc(C(C)(C)C)cc2)cc1
4. CC(C)C[C@@H](C=O)NC(=O)[C@@H](NS(=O)(=O)c1ccc(F)cc1)C(C)C

[reply]
[-0.24, -1.32, 1.54, -0.13]

###

Biological target: Transcription intermediary factor 1-alpha (Homo sapiens) (UniProt O15164)
Sequence (whole entry): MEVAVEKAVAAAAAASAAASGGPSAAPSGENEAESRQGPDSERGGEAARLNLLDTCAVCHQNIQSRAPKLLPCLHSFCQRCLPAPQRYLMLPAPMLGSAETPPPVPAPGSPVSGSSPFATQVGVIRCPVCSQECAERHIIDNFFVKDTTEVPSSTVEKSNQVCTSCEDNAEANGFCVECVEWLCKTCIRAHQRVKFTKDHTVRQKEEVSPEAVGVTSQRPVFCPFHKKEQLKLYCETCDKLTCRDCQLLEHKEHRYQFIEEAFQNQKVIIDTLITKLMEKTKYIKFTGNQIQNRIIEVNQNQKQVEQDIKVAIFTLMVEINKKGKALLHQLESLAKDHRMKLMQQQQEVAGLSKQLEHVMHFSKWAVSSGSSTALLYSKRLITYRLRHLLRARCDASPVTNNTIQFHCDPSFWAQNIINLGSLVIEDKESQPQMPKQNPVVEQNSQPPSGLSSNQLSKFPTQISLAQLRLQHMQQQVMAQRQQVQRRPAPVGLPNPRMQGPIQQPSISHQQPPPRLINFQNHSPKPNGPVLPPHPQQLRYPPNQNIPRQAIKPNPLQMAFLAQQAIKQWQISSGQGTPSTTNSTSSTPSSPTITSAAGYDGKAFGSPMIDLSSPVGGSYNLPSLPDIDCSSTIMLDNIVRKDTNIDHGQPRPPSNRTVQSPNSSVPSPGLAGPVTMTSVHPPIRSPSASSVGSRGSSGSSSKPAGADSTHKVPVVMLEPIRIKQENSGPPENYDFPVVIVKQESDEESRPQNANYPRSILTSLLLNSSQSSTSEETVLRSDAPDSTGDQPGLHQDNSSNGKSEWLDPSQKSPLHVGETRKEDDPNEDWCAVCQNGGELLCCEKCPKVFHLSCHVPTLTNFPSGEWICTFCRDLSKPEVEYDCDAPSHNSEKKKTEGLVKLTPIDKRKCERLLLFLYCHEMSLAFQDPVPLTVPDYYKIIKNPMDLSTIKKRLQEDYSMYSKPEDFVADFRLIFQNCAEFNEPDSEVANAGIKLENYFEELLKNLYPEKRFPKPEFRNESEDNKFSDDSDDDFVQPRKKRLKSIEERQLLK
Conditions: Compound concentration 20.0 uM
Could you label it T if measured ΔTm is -0.2 °C or higher, and F otherwise?

As a guide, the following entries are already answered.
CNC[C@@H](O)COc1ccc(Cl)c(-c2nc(-c3c(C)noc3C)c(C)c(N3CC4(CCN(C(=O)OC)CC4)C3)n2)c1; T
N#C[C@@H]1C[C@@H]2C[C@@H]2N1C(=O)[C@@H](N)C12CC3CC(CC(O)(C3)C1)C2; T
Nc1ccccc1NC(=O)c1ccc(CNc2nccc(-c3cccnc3)n2)cc1; T

Shifting focus to the molecule that follows.
[ask] Evaluate `COc1cccc(OC)c1S(=O)(=O)Nc1noc2cc(Cn3cccn3)cc(OC)c12` : ΔTm at minimum -0.2 °C?
[reply] F
